# System: Vero cells
# conditions: monkey
assay.endpoint: CC50

# lookup: Nc1ccn(C[C@H]2COP(=O)(O)CO2)c(=O)n1 on Vero cells, CC50 = > 100000 nM

# lookup: CCCCCCCCCCCCCCCCOCCCOP(=O)(O)CO[C@H](CO)Cn1ccc(N)nc1=O on Vero cells, CC50 = > 100 nM

# lookup: CCCCCCCCCCCCCCCCOCCCOP1(=O)COC(Cn2ccc(N)nc2=O)CO1 (stereo not drawn) on Vero cells, CC50 = > 100 nM

* * *

# protocol.description: Cytotoxicity of test compounds in vitro in MRC-5 cells (visual estimate of cell number)
# Format: cell-based, human
# conditions: human, mrc-5 cells; Table 2; MRC-5, 5 days at 37°C
assay.endpoint: CC50 at 120 h (µM)
# output: bare number, implied unit µM

Entry under test: CCCCCCCCCCCCCCCCOCCCOP(=O)(O)COCCn1cnc2c(N)ncnc21 . Its CC50 at 120 h was 6.5

* * *

# Test system: Vaccinia
# protocol.description: microbe, parasite or virus in culture
# Assay type: cell-based
# conditions: Orthopoxvirus vaccinia, Vero, read-out: EC50, µM Vaccinia
assay.endpoint: EC50

Entry under test: Nc1ccn(C[C@@H](CO)OCP(=O)(O)O)c(=O)n1 [CDV, cidofovir] . Its EC50 was 2.2 µM

* * *

# protocol.description: in vitro
# conditions: monkey, vero cells
assay.endpoint: CC50

Entry under test: Nc1ccn(C[C@@H](CO)OCP(=O)(O)O)c(=O)n1 . Its CC50 was > 100 µM

* * *

# Tested on: human lung fibroblast cells (MRC-5)
# protocol.description: Cytotoxicity of test compounds in vitro in MRC-5 cells (visual estimate of cell number)
# Format: cell-based
# conditions: Table 7; assessed as described in Example 17; 7200 min
Give CC50 for every item shown.
# output: bare number, implied unit µM

Entry under test: CCCCCCCCCCCCCCCCCCOCCOP1(=O)COC(Cn2ccc(N)nc2=O)CO1 (centres unmarked) [1-O-octadecylethanediol-2-cCDV] . Its CC50 was 320

Entry under test: CCCCCCCCCCCCCCCCCCOCCCOP(=O)(O)CO[C@H](CO)Cn1ccc(N)nc1=O [1-O-octadecylpropanediol-3-CDV] . Its CC50 was 32

Entry under test: CCCCCCCCCCCCCCCCOCCCOP(=O)(O)CO[C@H](CO)Cn1ccc(N)nc1=O [HDP-CDV] . Its CC50 was 10

Entry under test: CCCCCCCCCCCCCCCCCCOCCCOP1(=O)COC(Cn2ccc(N)nc2=O)CO1 (centres unmarked) [1-O-octadecylpropanediol-3-cCDV] . Its CC50 was 320

Entry under test: CCCCCCCCCCCCCCCCCCOCCOP(=O)(O)COC(CO)Cn1ccc(N)nc1=O (centres unmarked) [1-O-octadecylethanediol-2-CDV] . Its CC50 was 210

Entry under test: CCCCCCCCCCCCCCCCOCCCOP1(=O)COC(Cn2ccc(N)nc2=O)CO1 (centres unmarked) [HDP-cCDV, 1-O-hexadecylpropanediol-3-cyclic CDV] . Its CC50 was 320
